target_of_assay: Fyn (UniProt P06241)
Sequence (P06241 whole entry, looked up): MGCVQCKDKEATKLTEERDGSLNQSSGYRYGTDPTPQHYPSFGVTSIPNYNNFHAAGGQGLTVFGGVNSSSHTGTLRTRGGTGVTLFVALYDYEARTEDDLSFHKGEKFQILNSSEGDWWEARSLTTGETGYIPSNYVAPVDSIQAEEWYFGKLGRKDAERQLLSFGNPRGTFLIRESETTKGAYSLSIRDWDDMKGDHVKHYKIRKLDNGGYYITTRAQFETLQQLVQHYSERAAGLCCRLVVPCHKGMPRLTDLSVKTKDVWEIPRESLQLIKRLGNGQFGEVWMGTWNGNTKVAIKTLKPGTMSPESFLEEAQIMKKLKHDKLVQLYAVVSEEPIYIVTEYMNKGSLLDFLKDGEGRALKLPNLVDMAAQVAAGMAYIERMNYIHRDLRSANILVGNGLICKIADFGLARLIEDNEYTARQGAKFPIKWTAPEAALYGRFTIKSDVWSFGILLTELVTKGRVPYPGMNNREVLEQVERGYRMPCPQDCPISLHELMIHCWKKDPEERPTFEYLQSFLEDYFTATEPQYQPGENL
experiment_summary: phosphorylation enrichment, bacterial display (enrichment ratio); higher = better substrate or ligand; peptides without Tyr show the background
readout_kind: phosphorylation enrichment

> print(dat)
               biopolymer.sequence  test.value
1         LTNDRYLATLT [IL6ST_Y396]       0.746
2  KGSLPYSLILD [PKD1L2_Y406_N407S]       0.734
3          ADKAAYLQSLN [MYH2_Y389]       0.536
4     SLDLSYYHTSS [EMD_Y181_P183H]       0.543
5   LFEDHYLLGTS [ASS1_Y87_R86H_YF]       0.783
6    TEQDPSNNIVR [MMUT_Y364_Y364S]       0.492
7          VNKIYYPDFIV [LIG3_Y768]        1.09

* * *

target_of_assay: c-Src SH2;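 also: peptide library displayed on the E. coli surface as eCPX fusions, selected cells deep-sequenced, score is each peptide's frequency after selection divided by its frequency in the input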
experiment_summary: SH2 binding enrichment of the phosphorylated peptide, bacterial display (enrichment ratio); higher = better substrate or ligand; peptides without Tyr show the background
readout_kind: SH2 binding enrichment

> print(dat)
                     biopolymer.sequence  test.value
 1           VVQGIYGFHHF [UFSP2_Y285_YF]        0.83
 2                NVTGHYISPFH [PPA2_Y59]        1.14
 3        EAIMTYVSSFY [ACTN4_Y260_K255E]       0.477
 4        PEVRRHVLPLN [RPE65_Y368_Y368H]       0.663
 5       VCDSNYSASRW [LRP5_Y1552_D1551N]       0.648
 6           PVDVAYRRGFF [PLEC_Y2967_YF]        0.56
 7         ILCTVYAFKMR [GRM3_Y754_T758M]       0.718
 8         RGKDNYETSQL [SPP1_Y225_S224N]        0.59
 9     RGFRVCFTPDS [PTPRF_Y450_Y450C_YF]       0.338
10         LRAGVYREKDQ [DNM2_Y626_P627R]       0.427
11           RLLRGYDQSAF [HLA-C_Y137_YF]       0.758
12             FYDANYDGKEY [MAPRE2_Y162]       0.725
13       LERYIYNREEY [HLA-DPB1_Y59_F64Y]         1.8
14               VNKIYYPDFIV [LIG3_Y768]       0.675
15                VTGWGYRKLRD [F11_Y521]       0.505
16          TAALWYIYLHT [ENG_Y612_S615L]       0.514
17             ETDSEYVKLAK [C7orf57_Y70]       0.479
18     MTRDIYRASFF [ALK_Y1278_A1274T_YF]       0.529
19          EEQKKYFNAMK [SCN5A_Y1494_YF]       0.421
20         HKLSFCEFDFE [BTK_Y40_Y40C_YF]       0.622
21        TLQSMFGCDVG [HLA-B_Y123_Y123F]       0.541
22           GSCQEYTGAPY [NAXD_Y85_G81S]       0.825
23           DMLFQYLKQIE [RPAP3_Y569_YF]       0.652
24        QGIPWYHSQSP [FOXF1_Y331_R330W]        1.15
25           ALPGEYIPTVF [RAC1_Y32_F28L]       0.509
26              PSVVAYPKRSQ [MARK3_Y432]       0.367
27         LIDGYYRLTED [JAK2_Y373_A377E]           9
28        PSPMPCASCQM [FOXL2_Y215_Y215C]       0.523
29        GGYTWYCDGKK [PROS1_Y266_C265W]       0.455
30             KPFRVYCDMNT [FGB_Y269_YF]       0.771
31             ASMAKYYASEI [ACADSB_Y372]       0.575
32               AGTILYHAHLD [ASS1_Y291]       0.477
33       FIATQYSLCPR [LBR_Y166_R169C_YF]       0.687
34             TRSFDYMEGGD [FGF7_Y58_YF]       0.576
35            FRVAGYETQGG [TIA1_Y383_YF]       0.466
36     GGFTCCCDGKK [PROS1_Y266_Y266C_YF]       0.451
37          KQLGEYKFQNA [ALB_Y425_E420K]       0.565
38     SIKNKYVTALF [KCNH2_Y611_D609N_YF]       0.671
39              LDVDVYGPSVP [NUBPL_Y109]       0.498
40      HAVFVCDICHV [TWNK_Y508_Y508C_YF]        1.98
41         RLSARYFQGDL [PDK3_Y337_Y334S]        0.46
42           EGDGVYTLNNK [HP_Y125_E130K]       0.377
43          KWRGQYDVANK [BTK_Y425_I429N]         1.2
44          PELINYQQHNS [BTK_Y361_H362Q]       0.491
45  TGNGFYFRVFS [MYBPC3_Y1136_I1131T_YF]       0.363
46            ATQDDYVLEVR [PTPRZ1_Y2179]       0.505
47               MSRNLYSGDYY [DDR2_Y736]       0.845
48       MDFRSYPHEFG [RBM10_Y44_R46H_YF]       0.624
49              GKGGSYSQAAC [HLA-B_Y344]       0.746
50               RSACTYLASHL [PLK3_Y615]       0.641
51                 AEDKPYAELWM [MPI_Y46]        2.15
52             NLSVRYDSSLK [ABCC8_Y1353]       0.587
53     SFCFRYCCAAR [SUMF1_Y344_R345C_YF]       0.755
54            FPKARYHWLVL [APTX_Y214_YF]        1.42
55          WASQRYGRELR [BAD_Y110_A107S]       0.324
56      VSLEAYCKHKF [RXRA_Y403_A398V_YF]       0.337
57    MFNPCYGLFEF [NEDD4L_Y680_Y679C_YF]        0.67
